Protocol: physchem
solubility listing for selected compounds.
Report only the number, with the unit µg/mL understood.

Sample records with solubility:
>  <Compound>
O=C(O)c1ccc(-c2ccnc(Nc3ccccc3)n2)cc1C1CCCC1 [compound 62]

>  <Readout Units>
µg/mL

>  <solubility>
19.4

$$$$
>  <Compound>
O=C(O)c1ccc2c3c1cccc3c(=O)n1c3ccccc3nc21 [STO-609, reference compound]

>  <Readout Units>
µg/mL

>  <solubility>
60

$$$$

**Q:** Consider the compound O=C(O)c1ccc(-c2ccncn2)cc1C1CCCC1 [compound 56] and give its measured solubility.
**A:** 10.6
